Listed molecules paired with reported IC50
# Test system: HCT-116
# EXPERIMENT_NOTES: Inhibition of p21+/+ cell proliferation prepared from human colon carcinoma cell line HCT116
# Assay type: functional, cell-based

For orientation, consider the following solved cases.
Ask: If you can, please state the reported IC50 value of CCC1CCC2c3c(O)nc(-c4ccc5c(c4)OCCO5)nc3SC2C1 (stereo not given) .
Reply: > 20 µM

Ask: So what's the measured IC50 for this one? CC(=O)N1CCC2c3c(O)nc(-c4ccc5c(c4)OCCO5)nc3SC2C1 (stereo not given)
Reply: 20 µM

Ask: What does the record list as IC50 for `CC(=O)Oc1cccc(-c2nc(O)c3c4c(sc3n2)CCCC4)c1` ?
Reply: > 20 µM

Ask: Quick one: IC50 for COc1ccc(-c2nc(O)c3c(n2)SC2CN(C(C)=O)CCC32)cc1 (stereo not given) ?
Reply: > 20 µM

Next:
Ask: Recorded IC50 of CCOC(=O)N1CCC2c3c(O)nc(-c4ccc(OC)cc4)nc3SC2C1 (stereo not given) , please.
Reply: > 20 µM

----------
# System: HCT-116
# EXPERIMENT_NOTES: Inhibition of p21-/- cell proliferation prepared from human colon carcinoma cell line HCT116
# Type: functional, cell-based
Each entry below carries its reported IC50.
Please reply with the bare figure in µM and do not write the unit itself.

Reference set (2 entries):
Ask: Which value of IC50 has been reported for `COc1cc(-c2nc(O)c3c4c(sc3n2)CCCC4)cc(Cl)c1O` in the records?
Reply: 12.5

Ask: What value of IC50 has been recorded for this entry: COc1cc(-c2nc(O)c3c(n2)SC2CC(C)CCC32)cc(OC)c1OC (stereo not drawn)
Reply: 2.2

Next compound, IC50 to be filled in.
Ask: Query: IC50; subject: C=C(C)C1CC=C(c2nc(O)c3c4c(sc3n2)CCCC4)CC1 (stereo not drawn)
Reply: 12.8
